outcome-measure: melting point

compound=Cc1cc2ncn(Cc3ccc(NC(=O)/C=C/c4cnn(C)c4-c4ccc(F)cc4)cc3)c2cc1C outcome_measure="melting point" reported="279 to 280 °C"
compound=COCc1ccc(NC(=O)/C=C/c2cnn(C)c2-c2ccc(F)cc2)cc1 outcome_measure="melting point" reported="170 to 171 °C"
compound=Cn1ncc(/C=C/C(=O)Nc2ccc(Cn3cccn3)cc2)c1-c1ccc(F)cc1 outcome_measure="melting point" reported="189 to 191 °C"
compound=COP(=O)(Cc1ccc(NC(=O)/C=C/c2cnn(C)c2-c2cccc(Cl)c2)cc1)OC outcome_measure="melting point" reported="248 to 249 °C"
compound=Cn1ncc(/C=C/C(=O)Nc2ccc(CS(C)(=O)=O)cc2)c1-c1ccc(F)cc1 outcome_measure="melting point" reported="251 to 252 °C"
compound=COc1ccc(-c2c(/C=C\C(=O)Nc3ccc(CP(=O)(OC)OC)cc3)cnn2C)cc1 outcome_measure="melting point" reported="172 to 173 °C"
compound=Cn1ncc(/C=C/C(=O)Nc2ccc(CN3CCOCC3)cc2)c1-c1ccc(F)cc1 outcome_measure="melting point" reported="202 to 203 °C"
compound=Cn1ncc(/C=C/C(=O)Nc2ccc(CN3C(=O)CCCC3=O)cc2)c1-c1ccc(F)cc1 outcome_measure="melting point" reported="218 to 220 °C"
compound=CCOP(=O)(Cc1ccc(NC(=O)/C=C/c2cn(C)nc2-c2ccc(F)cc2)cc1)OCC outcome_measure="melting point" reported="197 to 198 °C"
compound="Cn1ncc(/C=C/C(=O)Nc2ccc([S+](C)[O-])cc2)c1-c1ccc(F)cc1 (centres unmarked)" outcome_measure="melting point" reported="260 to 261 °C"
compound=CC(=O)Cc1ccc(NC(=O)/C=C/c2cnn(C)c2-c2ccc(F)cc2)cc1 outcome_measure="melting point" reported="186 to 187 °C"
compound=Cc1nnc(COc2ccc(NC(=O)/C=C/c3cnn(C)c3-c3ccc(F)cc3)cc2)o1 outcome_measure="melting point" reported="117 to 118 °C"
compound=CC(=O)Nc1ccc(NC(=O)/C=C/c2cnn(C)c2-c2ccc(F)cc2)cc1 outcome_measure="melting point" reported="281 to 282 °C"
compound=CCc1nc(CCc2ccc(NC(=O)/C=C/c3cnn(C)c3-c3ccc(F)cc3)cc2)cs1 outcome_measure="melting point" reported="190 to 191 °C"
compound=COP(=O)(Cc1ccc(NC(=O)/C=C/c2c(C)nn(C)c2-c2ccc(F)cc2)cc1)OC outcome_measure="melting point" reported="195 to 198 °C"
compound=Cn1ncc(/C=C/C(=O)Nc2ccc(CSc3c[nH]nn3)cc2)c1-c1ccc(F)cc1 outcome_measure="melting point" reported="182 to 183 °C"
compound=CCCC(=O)NCc1ccc(NC(=O)/C=C/c2cnn(C)c2-c2ccc(F)cc2)cc1 outcome_measure="melting point" reported="259 to 260 °C"

====

A collection of compounds and their measured melting point
outcome-measure: melting point

compound="COC(=O)c1ccc(NC(=O)CCc2cnn(-c3ccccc3)c2-c2ccccc2)cc1 [Example 82]" outcome_measure="melting point" reported="196 to 197 °C"
compound=CCn1ncc(/C=C/C(=O)Nc2ccc(CP(=O)(OC)OC)cc2)c1-c1ccc(F)cc1 outcome_measure="melting point" reported="187 to 189 °C"
compound="Cn1ncc(/C=C/C(=O)Nc2ccc(C(N)=O)cc2)c1-c1ccc(F)cc1 [Example 183]" outcome_measure="melting point" reported="276 to 278 °C"
compound=COP(=O)(Cc1ccc(NC(=O)/C=C/c2cncn2-c2ccc(F)cc2)cc1)OC outcome_measure="melting point" reported="108 to 109 °C"
compound="Cn1ncc(/C=C/C(=O)Nc2ccc(Cn3nnc4ccccc43)cc2)c1-c1ccc(F)cc1 [Example 177]" outcome_measure="melting point" reported="226 to 227 °C"
compound=COP(=O)(Cc1ccc(NC(=O)/C=C/c2cnn(C)c2-c2ccoc2)cc1)OC outcome_measure="melting point" reported="176 to 177 °C"
compound="CCOC(=O)CCC(=O)NCc1ccc(NC(=O)/C=C/c2cnn(C)c2-c2ccc(F)cc2)cc1 [Example 188]" outcome_measure="melting point" reported="195 to 197 °C"
compound=CCOP(=O)(Cc1ccc(NC(=O)/C=C/c2cnn(C)c2-c2ccc(F)cc2)c(C)c1)OCC outcome_measure="melting point" reported="154 to 155 °C"
compound="CCn1nnnc1Cc1ccc(NC(=O)/C=C/c2cnn(C)c2-c2ccc(F)cc2)cc1 [Example 103]" outcome_measure="melting point" reported="206 to 207 °C"
